Entries and their Neu
# Organism: Rattus norvegicus
# Experimental Details: Open TG-GATES - Regimen: Daily Repeat
# Format: toxicity, organism-based, Sprague-Dawley
# Design: regimen Daily Repeat, gender Male, age 6 weeks
# Cond: in vivo, po, 0 mg/kg, […], tissue Blood, route gavage, dose level Control, time 28 day
Write the answer as a number in %, unit excluded.

Consider the worked cases shown below.
Compound	Property	Assay Result
C1CCC(C(CC2CCCCN2)C2CCCCC2)CC1 (stereo not given)	Neu	15
CC(=O)Nc1nnc(S(N)(=O)=O)s1 [ACETAZOLAMIDE]	Neu	12.4
CC(CN1c2ccccc2Sc2ccccc21)N(C)C (stereo not given)	Neu	16.4
Cc1cccc(Nc2ccccc2C(=O)O)c1C	Neu	14.4

Problem: So what does the record say about Neu for `CCOC(=O)[C@H](CCc1ccccc1)N[C@@H](C)C(=O)N1CCC[C@H]1C(=O)O` ?
Solution: 12.6

Problem: Same question, `CN1C(C(=O)Nc2ccccn2)=C(O)c2sc(Cl)cc2S1(=O)=O` this time
Solution: 14.2

---

# Organism: Rattus norvegicus
# Experimental Details: Open TG-GATES - Regimen: Daily Repeat
# Format: toxicity, organism-based, Sprague-Dawley
# Design: regimen Daily Repeat, gender Male, age 6 weeks
# Cond: in vivo, po, 0 mg/kg, […], tissue Blood, route gavage, dose level Control, time 14 day
Property: MCH (pg)
Field format: number, assumed pg, no unit text.

Problem: I'd like to know its MCH. The compound in question is `CCOC(=O)[C@H](CCc1ccccc1)N[C@@H](C)C(=O)N1CCC[C@H]1C(=O)O`
Solution: 20.6

Problem: Also, `Clc1c(Cl)c(Cl)c(Cl)c(Cl)c1Cl` please.
Solution: 21.2

Problem: Lookup `O=C(O)Cc1ccccc1Nc1c(Cl)cccc1Cl`
Solution: 21.5

Problem: Now consider CC(=O)Nc1nnc(S(N)(=O)=O)s1 [ACETAZOLAMIDE] and answer again.
Solution: 20.5

Problem: Also check `CN1C(C(=O)Nc2ccccn2)=C(O)c2sc(Cl)cc2S1(=O)=O`
Solution: 20.3

Problem: // repeat for `Cc1cccc(Nc2ccccc2C(=O)O)c1C` and report
Solution: 21.4

Problem: Would you kindly repeat that for CC(CN1c2ccccc2Sc2ccccc21)N(C)C (stereo not drawn) ?
Solution: 20.7

Problem: Next compound: `CN(C)[C@@H]1C(O)=C(C(N)=O)C(=O)[C@@]2(O)C(O)=C3C(=O)c4c(O)cccc4[C@@](C)(O)[C@H]3C[C@@H]12`
Solution: 20.9

---

# Species: Rattus norvegicus
# Experimental Details: Open TG-GATES - Regimen: Daily Repeat
# Assay type: toxicity, organism-based, Sprague-Dawley
# Set-up: regimen Daily Repeat, gender Male, age 6 weeks
# Cond: in vivo, po, 0 mg/kg, […], tissue Plasma, route gavage, dose level Control, time 14 day
Property: TG (mg/dL)
Give just the numeric value; mg/dL need not be written.

Problem: Looking for the measured TG of Cc1cccc(Nc2ccccc2C(=O)O)c1C [MEFENAMIC ACID] , can you help?
Solution: 101.4

Problem: Would you mind doing C1CCC(C(CC2CCCCN2)C2CCCCC2)CC1 (stereo not drawn) [PERHEXILINE] as well?
Solution: 131.5

---

# Organism: Rattus norvegicus
# Experimental Details: Open TG-GATES - Regimen: Daily Repeat
# Type: toxicity, organism-based, Sprague-Dawley
# Design: regimen Daily Repeat, gender Male, age 6 weeks
# Cond: in vivo, po, 0 mg/kg, […], tissue Plasma, route gavage, dose level Control, time 14 day
Measured Ca values are reported for all entries that follow.
Give your result in mg/dL as a bare value.

Below: 5 molecules and their reported Ca.
Molecule	Ca [mg/dL]
CCOC(=O)[C@H](CCc1ccccc1)N[C@@H](C)C(=O)N1CCC[C@H]1C(=O)O	10.9
C1CCC(C(CC2CCCCN2)C2CCCCC2)CC1 (stereo not drawn)	10.2
CN(C)[C@@H]1C(O)=C(C(N)=O)C(=O)[C@@]2(O)C(O)=C3C(=O)c4c(O)cccc4[C@@](C)(O)[C@H]3C[C@@H]12	11.1
CC(CN1c2ccccc2Sc2ccccc21)N(C)C (stereo not drawn)	10.8
CN1C(C(=O)Nc2ccccn2)=C(O)c2sc(Cl)cc2S1(=O)=O	10.7

Problem: Entry `Cc1cccc(Nc2ccccc2C(=O)O)c1C` : reported Ca = ?
Solution: 10.5

Problem: Then what about the molecule CC(=O)Nc1nnc(S(N)(=O)=O)s1 [ACETAZOLAMIDE] ?
Solution: 10.6

Problem: For `Clc1c(Cl)c(Cl)c(Cl)c(Cl)c1Cl` then?
Solution: 10.2

---

# reported CRE; entries follow
# Organism: Rattus norvegicus
# Experimental Details: Open TG-GATES - Regimen: Single
# Type: toxicity, organism-based, Sprague-Dawley
# Parameters: regimen Single, gender Male, age 6 weeks
# Cond: in vivo, po, 0 mg/kg, 3 h, tissue Plasma, route gavage, dose level Control

Some molecules with recorded CRE:
Molecule	CRE
C1CCC(C(CC2CCCCN2)C2CCCCC2)CC1 (stereo not given)	0.1 mg/dL
CN(C)[C@@H]1C(O)=C(C(N)=O)C(=O)[C@@]2(O)C(O)=C3C(=O)c4c(O)cccc4[C@@](C)(O)[C@H]3C[C@@H]12	0.5 mg/dL
CC(=O)Nc1nnc(S(N)(=O)=O)s1 [ACETAZOLAMIDE]	0.2 mg/dL
CC(CN1c2ccccc2Sc2ccccc21)N(C)C (stereo not given)	0.2 mg/dL

Problem: I'd like to know its CRE. The molecule in question is `Clc1c(Cl)c(Cl)c(Cl)c(Cl)c1Cl`
Solution: 0.4 mg/dL

Problem: Entry to check: COc1cc([C@@H]2c3cc4c(cc3[C@@H](O[C@@H]3O[C@@H]5CO[C@@H](C)O[C@H]5[C@H](O)[C@H]3O)[C@H]3COC(=O)[C@H]23)OCO4)cc(OC)c1O [ETOPOSIDE]
Solution: 0.5 mg/dL

---

# Organism: Rattus norvegicus
# Experimental Details: Open TG-GATES - Regimen: Daily Repeat
# Format: toxicity, organism-based, Sprague-Dawley
# Set-up: regimen Daily Repeat, gender Male, age 6 weeks
# Cond: in vivo, po, 0 mg/kg, […], tissue Blood, route gavage, dose level Control, time 28 day
# Lookup of reported Lym keyed by entry
The reply should be a number in %, with the unit left off.

Compound	Unit Spec	Lym
C#C[C@]1(O)CC[C@H]2[C@@H]3CCC4=Cc5oncc5C[C@]4(C)[C@H]3CC[C@@]21C [DANAZOL]	%	82.8
CN(C)[C@@H]1C(O)=C(C(N)=O)C(=O)[C@@]2(O)C(O)=C3C(=O)c4c(O)cccc4[C@@](C)(O)[C@H]3C[C@@H]12 [TETRACYCLINE]	%	83
Cc1cccc(Nc2ccccc2C(=O)O)c1C [MEFENAMIC ACID]	%	81.4

Now look at this entry.
Problem: Request the reported Lym associated with C1CCC(C(CC2CCCCN2)C2CCCCC2)CC1 (centres undefined) [PERHEXILINE]
Solution: 81.8

---

# Species on record: Rattus norvegicus
# Experimental Details: Open TG-GATES - Regimen: Daily Repeat
# Assay type: toxicity, organism-based, Sprague-Dawley
# Set-up: regimen Daily Repeat, gender Male, age 6 weeks
# Cond: in vivo, po, 0 mg/kg, […], tissue Kidney, route gavage, dose level Control, time 14 day
Property: KIDNEY_R

Some compounds with known KIDNEY_R results, for comparison:
Compound	KIDNEY_R
C1CCC(C(CC2CCCCN2)C2CCCCC2)CC1 (stereo not given)	1.1 g
CN1C(C(=O)Nc2ccccn2)=C(O)c2sc(Cl)cc2S1(=O)=O	1.3 g
O=C(O)Cc1ccccc1Nc1c(Cl)cccc1Cl	1.3 g
CN(C)[C@@H]1C(O)=C(C(N)=O)C(=O)[C@@]2(O)C(O)=C3C(=O)c4c(O)cccc4[C@@](C)(O)[C@H]3C[C@@H]12	1.2 g

Problem: Request the reported KIDNEY_R associated with `Clc1c(Cl)c(Cl)c(Cl)c(Cl)c1Cl`
Solution: 1.3 g

---

# Species: Rattus norvegicus
# Experimental Details: Open TG-GATES - Regimen: Single
# Format: toxicity, organism-based, Sprague-Dawley
# Design: regimen Single, gender Male, age 6 weeks
# Cond: in vivo, po, 0 mg/kg, 9 h, tissue Plasma, route gavage, dose level Control
Property: Ca (mg/dL)
Quick note: give the figure in mg/dL, leave out the unit.

Compound	Property	Unit Spec	Assay Result
CC(CN1c2ccccc2Sc2ccccc21)N(C)C (centres undefined)	Ca	mg/dL	10.6
CN(C)[C@@H]1C(O)=C(C(N)=O)C(=O)[C@@]2(O)C(O)=C3C(=O)c4c(O)cccc4[C@@](C)(O)[C@H]3C[C@@H]12	Ca	mg/dL	10.4

Problem: Please give the measured Ca for this compound: `Cc1cccc(Nc2ccccc2C(=O)O)c1C`
Solution: 10.4

Problem: // same read-out, input: `CN1C(C(=O)Nc2ccccn2)=C(O)c2sc(Cl)cc2S1(=O)=O`
Solution: 10.5

Problem: # repeat for C1CCC(C(CC2CCCCN2)C2CCCCC2)CC1 (centres undefined)
Solution: 10.9
